Hello, the source for this data is ChEMBL document CHEMBL4819011, in case you need it.

Assay: Volume of distribution at steady state in Sprague-Dawley rat at 1 mg/kg, iv measured for 24 hrs by LC-MS/MS analysis
Format: ADME, organism-based
Details: in vivo, read-out: Vdss
Recorded endpoint: Vd
Please answer using a numeric value trailed by its unit.

Value of measured Vd for the entry Cc1cc(F)c(C(=O)Nc2cccc(-c3nncn3C(C)C)n2)cc1-n1cnc(C2CC2)c1 [SELONSERTIB] : 0.55 L/kg

* * *

Target: Mitogen-activated protein kinase kinase kinase 5 (Homo sapiens)
Sequence (Q99683 whole entry): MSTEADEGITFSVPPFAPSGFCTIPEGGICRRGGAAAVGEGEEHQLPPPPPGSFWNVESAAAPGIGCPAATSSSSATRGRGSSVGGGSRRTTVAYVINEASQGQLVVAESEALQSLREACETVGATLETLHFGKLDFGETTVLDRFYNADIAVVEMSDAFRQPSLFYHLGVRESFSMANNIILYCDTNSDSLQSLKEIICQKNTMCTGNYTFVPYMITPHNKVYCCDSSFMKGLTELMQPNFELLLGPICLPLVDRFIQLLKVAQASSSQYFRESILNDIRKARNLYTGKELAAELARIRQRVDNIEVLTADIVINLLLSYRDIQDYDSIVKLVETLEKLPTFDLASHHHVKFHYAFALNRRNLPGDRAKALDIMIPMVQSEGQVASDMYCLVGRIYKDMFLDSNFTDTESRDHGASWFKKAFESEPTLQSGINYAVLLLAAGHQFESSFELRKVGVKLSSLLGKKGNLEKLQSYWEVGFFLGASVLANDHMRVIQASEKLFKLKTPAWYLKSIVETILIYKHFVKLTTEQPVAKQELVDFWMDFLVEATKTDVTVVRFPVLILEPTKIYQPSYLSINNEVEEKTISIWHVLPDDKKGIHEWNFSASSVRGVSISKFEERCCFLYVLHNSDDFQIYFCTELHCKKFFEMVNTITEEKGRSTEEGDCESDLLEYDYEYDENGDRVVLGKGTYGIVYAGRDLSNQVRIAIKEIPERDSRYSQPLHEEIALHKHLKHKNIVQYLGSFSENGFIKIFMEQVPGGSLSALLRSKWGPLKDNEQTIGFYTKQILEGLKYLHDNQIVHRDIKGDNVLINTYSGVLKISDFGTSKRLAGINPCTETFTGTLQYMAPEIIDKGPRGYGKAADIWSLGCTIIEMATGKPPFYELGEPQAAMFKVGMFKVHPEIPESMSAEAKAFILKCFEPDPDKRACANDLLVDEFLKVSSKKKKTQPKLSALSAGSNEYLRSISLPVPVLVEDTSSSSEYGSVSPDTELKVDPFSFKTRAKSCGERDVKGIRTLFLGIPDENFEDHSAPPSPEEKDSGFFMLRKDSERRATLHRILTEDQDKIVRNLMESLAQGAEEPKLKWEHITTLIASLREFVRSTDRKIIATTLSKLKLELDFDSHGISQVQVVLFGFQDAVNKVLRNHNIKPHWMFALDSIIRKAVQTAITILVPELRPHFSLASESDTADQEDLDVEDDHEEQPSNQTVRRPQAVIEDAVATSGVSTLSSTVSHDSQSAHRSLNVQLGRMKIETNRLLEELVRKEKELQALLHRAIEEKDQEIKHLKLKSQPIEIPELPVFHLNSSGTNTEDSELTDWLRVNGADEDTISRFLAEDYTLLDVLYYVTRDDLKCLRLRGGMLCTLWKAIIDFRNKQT
Assay: Inhibition of ASK1 (unknown origin)
Recorded endpoint: IC50 (nM)
The reply should contain only the number, in nM.

Value of IC50 reported for the compound Cc1cc(F)c(C(=O)Nc2cccc(-c3nncn3[C@@H](C)C(F)(F)F)n2)cc1-n1cnc(C2CC2)c1 is 4.3
